Biological target: bovine plasma plasmin (Bos taurus)
Construct: from tissue; host or cells: bovine plasma
Sequence (P06868 584-812 limits assumed): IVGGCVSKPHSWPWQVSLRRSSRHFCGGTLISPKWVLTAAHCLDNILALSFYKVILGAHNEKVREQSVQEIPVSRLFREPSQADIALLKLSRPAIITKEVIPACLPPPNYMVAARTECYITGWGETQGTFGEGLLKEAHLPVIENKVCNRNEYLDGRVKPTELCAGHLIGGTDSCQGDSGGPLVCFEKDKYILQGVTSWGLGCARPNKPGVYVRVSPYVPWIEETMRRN
Sequence (P06868 105-583 partner limits assumed): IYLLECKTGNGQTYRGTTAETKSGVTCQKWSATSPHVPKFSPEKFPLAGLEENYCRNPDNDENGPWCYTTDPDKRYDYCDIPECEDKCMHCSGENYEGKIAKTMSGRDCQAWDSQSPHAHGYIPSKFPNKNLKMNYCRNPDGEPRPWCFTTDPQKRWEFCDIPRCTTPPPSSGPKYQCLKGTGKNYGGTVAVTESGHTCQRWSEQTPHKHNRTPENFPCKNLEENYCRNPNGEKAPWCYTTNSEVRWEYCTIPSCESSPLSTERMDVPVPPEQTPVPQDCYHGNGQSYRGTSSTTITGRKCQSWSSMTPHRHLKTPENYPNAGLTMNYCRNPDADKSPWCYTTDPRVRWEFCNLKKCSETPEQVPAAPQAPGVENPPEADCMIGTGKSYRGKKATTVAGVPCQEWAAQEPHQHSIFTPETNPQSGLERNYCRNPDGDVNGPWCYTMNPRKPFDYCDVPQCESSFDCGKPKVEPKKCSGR
Test: Chromogenic assay, inhibition of plasmin
Type: biochemical
Settings: in vitro; substrate Chromozym PL; pH 8.0; 30 minutes at 30° C.
Experimental: The inhibition of thrombin, trypsin, plasmin or factor Xa is measured in 96 well plate chromogenic assays. The percentage inhibition and IC50 are calculated from triplicate samples of an 8 concentration dose-response curve. From the substrate Km and IC50, the Ki for each inhibitor is calculated. […] After 30 minutes incubation at 30° C., the O.D. is measured at […] in a 96 well plate reader. […]
Where a name gives a salt, the structure may show the parent alone.
# reported Ki; entries follow
The answer is to be given in µM; state only the numeric part.

compound="CC1=CCN(C(=O)[C@H](Cc2cccc(C(=N)N)c2)NS(=O)(=O)c2ccc3c(c2)CN(Cc2ccccc2)CC3)[C@@H](C(=O)O)C1 [Example 10, dihydrochloride]" readout_number=0.18
compound="CC1=CCN(C(=O)[C@H](Cc2cccc(C(=N)N)c2)NS(=O)(=O)c2ccc3c(c2)CNCC3)C(C(=O)O)C1 (stereo partly drawn) [Example 15, dihydrochloride]" readout_number=14

Shift focus to the following entry.
Short answer for C[C@@H]1CCN(C(=O)C(Cc2cccc(C(=N)N)c2)NS(=O)(=O)c2ccc3c(c2)CN(C)CC3)[C@@H](C(=O)O)C1 (stereo partly drawn) [Example 13, dihydrochloride] : Ki was 12

----------
biological target: UniProt:P00735; assay: Chromogenic assay, inhibition of thrombin; type: biochemical; details: in vitro; substrate S2238; pH 8.0; 30 minutes at 30° C.
Structures can show the parent of a compound that is named as a salt.
# Ki listing for each entry below
Note: unit nM is implicit; provide only the numeric part.

Known Ki results, listed for orientation:
compound="CC1=CCN(C(=O)[C@H](Cc2cccc(C(=N)N)c2)NS(=O)(=O)c2ccc3c(c2)CCN(C)C3)[C@@H](C(=O)O)C1 [Example 2, dihydrochloride]" quantity_kind=Ki unit_symbol=nM readout_number=3.9
compound="C[C@@H]1CCN(C(=O)C(Cc2cccc(C(=N)N)c2)NS(=O)(=O)c2ccc3c(c2)CN(C)CC3)[C@@H](C(=O)O)C1 (stereo partly drawn) [Example 13, dihydrochloride]" quantity_kind=Ki unit_symbol=nM readout_number=4

// switching to the query compound
Lab note: CC1=CCN(C(=O)[C@H](Cc2cccc(C(=N)N)c2)NS(=O)(=O)c2ccc3c(c2)CN(Cc2ccccc2)CC3)[C@@H](C(=O)O)C1 [Example 10, dihydrochloride] gave Ki of 1
